system: SN12C renal; assay: NCI-60 one-dose screen, 48 h; details: 10 µM unless noted
This is part of a sample that, as a whole, favours compounds with a hit. Of some 83,000 tested, about 20% had one in any assay. Active and inactive are the calls of the source. How the source made its calls: active means growth percent below 10; inactive means the rest.
Result category, one only: active, inactive

## Task Give the logged outcome of this assay for the following compound: `O=C(c1ccccc1)c1c(/C=C/c2ccc(Cl)cc2)nc2ccccc2c1/C=C/c1cccs1`
## Result inactive

## Task Also `COc1cc(/C=C/C(=O)N2CCN(C(=O)c3cc(OC)c(OC)c(OC)c3)CC2)ccc1OCCCN1C(=O)c2cccc3cccc(c23)C1=O` ?
## Result inactive

## Task Repeat with COc1cc(C2CC(c3ccc(Nc4ccnc5cc(Cl)ccc45)cc3)=NN2C=O)cc(OC)c1OC (stereo not given)
## Result inactive

## Task Next up: `CCCCc1ccc(Nc2ccc(Nc3ccc(CCCC)cc3S(=O)(=O)O)c3c2C(=O)c2ccccc2C3=O)c(S(=O)(=O)O)c1`
## Result inactive

## Task What about `S=C(Cc1ccc2c(c1)CCCC2)N1CCOCC1` ?
## Result inactive

## Task Try the compound CCCCCCCOc1c(OC)cc(C2CC(=O)Nc3c2c(C)nn3-c2nc3ccccc3[nH]2)cc1OC (stereo not given)
## Result active

## Task Also O=[N+]([O-])c1ccc(C2CC(c3ccccc3)=Nc3ccccc3S2)cc1 (stereo not given) , if possible.
## Result inactive

## Task # repeat for `O=C1Nc2ccccc2/C1=C/c1cn(C(=O)c2c(Cl)cccc2Cl)c2ccccc12`
## Result inactive

## Task Next entry: CCN1C(=O)N(CC)C2Nn3c(s/c(=C4\C(=O)N(C)c5ccccc54)c3=O)=NC21 (stereo not given)
## Result inactive

## Task Try this compound too: `COc1cc(/C=C/C(=O)c2ccc(Nc3nc(Nc4ccc(F)cc4)nc(Nc4ccc(Cl)cc4)n3)cc2)cc(OC)c1OC`
## Result inactive

## Task Next compound: `COc1ccc(/C=C/c2c(C(=O)/C=C/c3cccs3)c(C)nc3ccccc23)cc1`
## Result inactive

## Task Also check CC1=C([Se]CC(OC(=O)CC[Se]c2ccccc2)C(=O)NCCCCCC(=O)OCc2ccccc2)C(=O)c2ccccc2C1=O (stereo not given)
## Result inactive

## Task Again, but for `Clc1ccc(-c2c3ccc(=[N+]4CCCCC4)cc-3oc3cc(N4CCCCC4)ccc23)cc1`
## Result active

## Task Same again, this time with `O=C(Nc1ccccc1-c1nc2ccccc2c(=O)[nH]1)c1cc2ccccc2[nH]1`
## Result inactive

## Task Similarly, `Cc1ccc(N(C(=O)CCc2c[nH]c3ccccc23)[C@H](C(=O)Nc2ccc(Cl)cc2)c2cccc([N+](=O)[O-])c2)cc1` ?
## Result inactive

## Task Same read-out for `COC(=O)c1c2c(c(C)[n+]([O-])c1C)C(=O)C(NCc1ccc(F)c(Cl)c1)=CC2=O` ?
## Result active

## Task Now the compound `Cc1ccccc1NC(=O)N/C(N)=N/c1nc(-c2cccc([N+](=O)[O-])c2)cs1`
## Result inactive

## Task Proceed to CCN1C(=O)N(CC)C2Nn3c(s/c(=C\c4ccc(Cl)cc4Cl)c3=O)=NC21 (stereo not given)
## Result inactive

## Task Can you check N#Cc1c2c(nn(-c3ccccc3)c1=O)C(O)=C([N+](=O)[O-])C(c1ccccc1)C2 (stereo not given) next?
## Result inactive

## Task Now try `Cc1ccc(Nc2ccc(Nc3ccc(C)cc3)c3c2C(=O)c2cccc(O)c2C3=O)cc1` .
## Result inactive

## Task Here is the next compound: `COc1nc2c(c(=O)n1C)CN(c1ccccc1)C(=O)CN2C`
## Result inactive

## Task Can you check `CCN1CCN(c2nc(C)cc(NCc3cc(Nc4ccnc5cc(Cl)ccc45)ccc3F)n2)CC1` next?
## Result inactive

## Task Please answer likewise for `NC(=N\N=C/c1ccccc1[N+](=O)[O-])/C(N)=N\N=C/c1ccccc1[N+](=O)[O-]`
## Result inactive

## Task For `N#Cc1c(-c2cccc(Cl)c2)cc(-c2cccc(F)c2)[nH]c1=O` then?
## Result inactive

## Task Param item: `S=C(c1ccc2c(c1)OCO2)N1CCN(c2ccccc2Cl)CC1`
## Result inactive

## Task Please do the same for `O=C(/C=C/c1cccc(O)c1)c1cccc(-n2cc(-c3ccc4ccccc4c3)[nH]c2=O)c1` as well.
## Result active

## Task How about this compound: `COC(=O)[C@]12CC[C@@H](C)[C@H](C)[C@@H]1C1=CC[C@@H]3[C@@]4(C)C(C=O)=C[C@@](C)(COC(=O)c5ccco5)[C@@H]4C(=O)C[C@@]3(C)[C@]1(C)CC2`
## Result inactive

## Task Now try `O=C(CCc1nnc(CN(c2ccccc2)c2ccccc2)o1)c1nc2ccccc2[nH]1` .
## Result inactive

## Task // next record `Cc1nc2ccccc2c(/C=C/c2ccc(Cl)cc2)c1C(=O)/C=C/c1ccc(F)cc1`
## Result active

## Task Ok, now `COC(=O)[C@]12CC[C@@H](C)[C@H](C)[C@@H]1C1=CC[C@@H]3[C@@]4(C)C(C=O)=C[C@@](C)(COS(C)(=O)=O)[C@@H]4C(=O)C[C@@]3(C)[C@]1(C)CC2`
## Result inactive

## Task Here is the next compound: `C[n+]1cc2c3c(ccc2c2ccc4cc5c(cc4c21)OCO5)OCO3`
## Result active

## Task // next record `CCOC(CN=Cc1cc(C)c2[nH]c3ccccc3c2c1C)OCC`
## Result inactive

## Task Repeat for the following compound: `CN(C)c1ccc(/C=C/C(=O)c2cccc(Nc3nc(Nc4ccccc4)nc(Nc4ccccc4)n3)c2)cc1`
## Result inactive

## Task Query `CS(=O)(=O)c1ccc(Nc2nc(N[C@H]3CCCC[C@H]3N)nc3cc[nH]c(=O)c23)cc1` next
## Result active

## Task Follow-up item: `C(=N\Nc1ncc(-c2cc3cc4c(cc3o2)OCO4)s1)/c1ccco1`
## Result inactive
